- Test system: Wolbachia pipientis
- procedure_text: Anti-Wolbachia Cell-Based Screen
- Format: functional
- Set-up: scale not given: in the data most compounds retested in dose-response had high values
- condition_details: 5 µM
Out of some 48,000 compounds screened, about 13,000 (27%) showed an effect of 50% or more. Some of the results follow.
assay_endpoint: Percent Effect (%)

molecule=Cn1cnc(-c2nc(C(=O)NCCN3CCCC3)c3ccccn23)c1 measure_unit=% reading=-11.17
molecule=CC(C)n1cnc(-c2nc(C(=O)N3CCN(C)CC3)c3ccccn23)c1 measure_unit=% reading=2.747
molecule=COCCN1CCc2cc(C(=O)O)c(-c3ccoc3)nc2CC1.O=C(O)C(F)(F)F.O=C(O)C(F)(F)F measure_unit=% reading=-9.804
molecule=Cc1nc(-c2nc(C(=O)N(C)C)c3ccccn23)cn1C(C)C measure_unit=% reading=84.92
molecule=Cn1cnc(-c2nc(C(=O)NC3CC3)c3ccccn23)c1 measure_unit=% reading=-8.322
molecule=Cc1nc(C(=O)N(C)CC(F)(F)C(F)(F)F)c2ccccn12 measure_unit=% reading=6.68
molecule=CC(=O)c1cccc(NC(=O)NCCc2nnc[nH]2)c1 measure_unit=% reading=-18
molecule=NS(=O)(=O)N1CCc2ccc(NC(=O)CC(F)(F)F)cc21 measure_unit=% reading=-10.92
molecule=CCS(=O)(=O)N1CCc2ccc(NC(=O)Nc3cccc(F)c3)cc21 measure_unit=% reading=144.6
molecule=Cc1nc(-c2nc(C(=O)N3CCOCC3)c3ccccn23)cn1C(C)C measure_unit=% reading=-8.689
molecule="CC(=O)N1CCN(Cc2c(C)ccc3ccccc23)CC(O)C1 (stereo unspecified)" measure_unit=% reading=0.367
